# test: Selectivity index, ratio of IC50 for rat L6 cells to IC50 for chloroquine-resistant erythrocytic stage of Plasmodium falciparum K1
# Format: toxicity, cell-based
# test.context: read-out: Ratio IC50
metric.name: selectivity ratio

COC(=O)c1ccc2c(c1)c(NCCCNC(=O)Nc1ccccc1)c1c3cc(Br)ccc3nc-1n2C
56.9
Cn1c2nc3ccccc3c-2cc2ccccc21 [NEOCRYPTOLEPINE]
1.88
COC(=O)c1ccc2nc3n(C)c4ccc(C(=O)OC)cc4c(NCCCNC(=S)Nc4ccccc4)c-3c2c1
12.4
COC(=O)c1ccc2nc3n(C)c4ccc(C(=O)OC)cc4c(NCCCN)c-3c2c1
117
COC(=O)c1ccc2c(c1)c(NCCCN)c1c3ccccc3nc-1n2C
15.2
COC(=O)c1ccc2nc3n(C)c4ccc(Cl)cc4c(NCCCNC(=O)Nc4ccccc4)c-3c2c1
143

Each compound below has a reported value. Please supply its selectivity ratio.
1. Cn1c2nc3ccc(Br)cc3c-2c(NCCCN)c2cc(Cl)ccc21
2. COC(=O)c1ccc2nc3n(C)c4ccccc4c(NCCCNC(=S)Nc4ccccc4)c-3c2c1
3. COC(=O)c1ccc2c(c1)c(NCCCNC(=S)Nc1ccccc1)c1c3ccccc3nc-1n2C

1. 20.9
2. 43.8
3. 36.1

---

# Tested on: Plasmodium falciparum
# test: Antimalarial activity against chloroquine-sensitive erythrocytic stage of Plasmodium falciparum NF54 infected in human red blood cells assessed as growth inhibition after 72 hrs by [3H]-hypoxanthine incorporation assay
metric.name: log10 of IC50 (log10 of the value in nM)
log10 IC50, nM

COC(=O)c1ccc2c(c1)c(NCCCNC(=O)Nc1ccccc1)c1c3ccccc3nc-1n2C
0.62
COC(=O)c1ccc2c(c1)c(NCCCN)c1c3ccccc3nc-1n2C
0.92
COC(=O)c1ccc2nc3n(C)c4ccccc4c(NCCCN)c-3c2c1
1.39
COC(=O)c1ccc2nc3n(C)c4ccc(C(=O)OC)cc4c(NCCCN)c-3c2c1
0.98
COC(=O)c1ccc2c(c1)c(NCCCNC(=O)Nc1ccccc1)c1c3cc(Br)ccc3nc-1n2C
0.85
COC(=O)c1ccc2nc3n(C)c4ccccc4c(N4CCOCC4)c-3c2c1
3.25

Each molecule below has a reported value. Please supply its log10 of IC50.
1. CN(C)CCNc1c2c3cc(C(=O)O)ccc3nc-2n(C)c2ccccc12
2. Cn1c2nc3ccc(Br)cc3c-2c(NCCCN)c2cc(Cl)ccc21
3. COC(=O)c1ccc2nc3n(C)c4ccccc4c(NCCN(C)C)c-3c2c1
4. COC(=O)c1ccc2c(c1)c(NCCCNC(=S)Nc1ccccc1)c1c3ccccc3nc-1n2C
5. Cn1c2nc3ccc(Br)cc3c-2c(NCCCNC(=O)Nc2ccccc2)c2cc(Cl)ccc21
6. COC(=O)c1ccc2nc3n(C)c4ccc(Br)cc4c(NCCCNC(=O)Nc4ccccc4)c-3c2c1
7. COC(=O)c1ccc2nc3n(C)c4ccccc4c(NCCCNC(=S)Nc4ccccc4)c-3c2c1

1. 3.41
2. 0.33
3. 1.63
4. 0.26
5. 0.75
6. 0.91
7. 0.78

---

# test: Selectivity index, ratio of IC50 for rat L6 cells to IC50 for chloroquine-sensitive erythrocytic stage of Plasmodium falciparum NF54
# Format: toxicity, cell-based
# test.context: read-out: Ratio IC50
Parameter threshold = 100. Response is true (1) when selectivity ratio meets or exceeds it, else false (0).

Here are 5 molecules together with their reported answers.
COC(=O)c1ccc2nc3n(C)c4ccccc4c(NCCCCN)c-3c2c1
false (0)
COC(=O)c1ccc2nc3n(C)c4ccc(Br)cc4c(NCCCN)c-3c2c1
true (1)
Cn1c2nc3ccc(C(=O)O)cc3c-2c(NCCCN)c2ccccc21
false (0)
COC(=O)c1ccc2c(c1)c(NCCCN)c1c3cc(Br)ccc3nc-1n2C
true (1)
COC(=O)c1ccc2nc3n(C)c4ccccc4c(NCCCN(C)C)c-3c2c1
false (0)

Could you tell me if the measured selectivity ratio of COC(=O)c1ccc2c(c1)c(NCCCNC(=O)Nc1ccccc1)c1c3ccccc3nc-1n2C reaches 100 or more?
true (1)

---

# System: Plasmodium falciparum
# test: Antimalarial activity against chloroquine-sensitive erythrocytic stage of Plasmodium falciparum NF54 infected in human red blood cells assessed as growth inhibition after 72 hrs by [3H]-hypoxanthine incorporation assay
metric.name: IC50 (nM)
Answers are plain numbers, in nM.

Each compound below has a reported value. Please supply its IC50.
1. COC(=O)c1ccc2nc3n(C)c4ccccc4c(NCCCCN)c-3c2c1
2. Cn1c2nc3ccc(C(=O)O)cc3c-2c(NCCCN)c2ccccc21
3. COC(=O)c1ccc2nc3n(C)c4ccc(Cl)cc4c(NCCCN)c-3c2c1
4. COC(=O)c1ccc2nc3n(C)c4ccc(C(=O)OC)cc4c(NCCCNC(=S)Nc4ccccc4)c-3c2c1
5. COC(=O)c1ccc2nc3n(C)c4ccccc4c(N4CCCN(C)CC4)c-3c2c1
6. CN(C)CCCNc1c2c3cc(C(=O)O)ccc3nc-2n(C)c2ccccc12

[55.8, 1690, 7.57, 14.4, 750, 2160]

---

# test: Selectivity index, ratio of IC50 for rat L6 cells to IC50 for chloroquine-sensitive erythrocytic stage of Plasmodium falciparum NF54
# Assay type: toxicity, cell-based
# test.context: read-out: Ratio IC50
metric.name: selectivity ratio
One number for each entry.

Previously resolved entries follow.
Cn1c2nc3ccc(Br)cc3c-2c(NCCCNC(=O)Nc2ccccc2)c2cc(Cl)ccc21
73
COC(=O)c1ccc2nc3n(C)c4ccccc4c(NCCCNC(=S)Nc4ccccc4)c-3c2c1
467
COC(=O)c1ccc2c(c1)c(NCCCNC(=S)Nc1ccccc1)c1c3ccccc3nc-1n2C
321

Each compound below has a reported value. Please supply its selectivity ratio.
1. CN(C)CCNc1c2c3cc(C(=O)O)ccc3nc-2n(C)c2ccccc12
2. COC(=O)c1ccc2c(c1)c(NCCCNC(=O)Nc1ccccc1)c1c3cc(Br)ccc3nc-1n2C

7.84
157

---

Please respond with reported IC50 for every item in the list.
# System: Plasmodium falciparum
# test: Antimalarial activity against chloroquine-sensitive erythrocytic stage of Plasmodium falciparum NF54 infected in human red blood cells assessed as growth inhibition after 72 hrs by [3H]-hypoxanthine incorporation assay
One number for each entry, in nM.

Previously resolved entries follow.
COC(=O)c1ccc2nc3n(C)c4ccccc4c(NCCCNC(=O)Nc4ccccc4)c-3c2c1
14.5
COC(=O)c1ccc2nc3n(C)c4ccc(C(=O)OC)cc4c(NCCCNC(=O)Nc4ccccc4)c-3c2c1
16.7
COC(=O)c1ccc2nc3n(C)c4ccc(Cl)cc4c(NCCCNC(=O)Nc4ccccc4)c-3c2c1
13.6
COC(=O)c1ccc2nc3n(C)c4ccccc4c(NCCCO)c-3c2c1
278
COC(=O)c1ccc2nc3n(C)c4ccc(Br)cc4c(NCCCN)c-3c2c1
2.27
COC(=O)c1ccc2nc3n(C)c4ccccc4c(NCCCN(C)C)c-3c2c1
33.3

Switching to the query record.
Quick one: IC50 of COC(=O)c1ccc2c(c1)c(NCCCN)c1c3cc(Br)ccc3nc-1n2C ?
4.54

---

# test: Selectivity index, ratio of IC50 for rat L6 cells to IC50 for chloroquine-sensitive erythrocytic stage of Plasmodium falciparum NF54
# Type: toxicity, cell-based
# test.context: read-out: Ratio IC50
metric.name: selectivity ratio
Give bare numbers.

Cn1c2nc3ccccc3c-2cc2ccccc21 [NEOCRYPTOLEPINE]
2
CN(C)CCCNc1c2c3cc(C(=O)O)ccc3nc-2n(C)c2ccccc12
30.6
COC(=O)c1ccc2c(c1)c(NCCCN)c1c3ccccc3nc-1n2C
40.7
COC(=O)c1ccc2nc3n(C)c4ccccc4c(NCCCN)c-3c2c1
8.79
COC(=O)c1ccc2nc3n(C)c4ccccc4c(N4CCOCC4)c-3c2c1
2.15

Each compound below has a reported value. Please supply its selectivity ratio.
1. COC(=O)c1ccc2nc3n(C)c4ccccc4c(NCCCNC(=O)Nc4ccccc4)c-3c2c1
2. COC(=O)c1ccc2nc3n(C)c4ccccc4c(NCCN(C)C)c-3c2c1
3. Cn1c2nc3ccc(Br)cc3c-2c(NCCCN)c2cc(Cl)ccc21
4. COC(=O)c1ccc2nc3n(C)c4ccc(C(=O)OC)cc4c(NCCCNC(=S)Nc4ccccc4)c-3c2c1
5. COC(=O)c1ccc2nc3n(C)c4ccc(Cl)cc4c(NCCCN)c-3c2c1
6. COC(=O)c1ccc2nc3n(C)c4ccc(Br)cc4c(NCCCNC(=O)Nc4ccccc4)c-3c2c1
7. COC(=O)c1ccc2nc3n(C)c4ccccc4c(N4CCCN(C)CC4)c-3c2c1
8. COC(=O)c1ccc2nc3n(C)c4ccc(Cl)cc4c(NCCCNC(=O)Nc4ccccc4)c-3c2c1

1: 178; 2: 7.41; 3: 186; 4: 43.5; 5: 56.4; 6: 837; 7: 8.25; 8: 246

Each compound below has a reported value. Please supply its selectivity ratio.
1. COC(=O)c1ccc2nc3n(C)c4ccc(C(=O)OC)cc4c(NCCCNC(=O)Nc4ccccc4)c-3c2c1
2. COC(=O)c1ccc2nc3n(C)c4ccc(C(=O)OC)cc4c(NCCCN)c-3c2c1

1: 1590; 2: 146

Quick one: selectivity ratio of Cn1c2nc3ccccc3c-2c(NCCCN)c2ccccc21 ?
3.5
